test system: Ipomoea hederacea (IPOHE); test: Post-emergence efficacy, glasshouse, evaluated after 13 days; format: in vivo; conditions: Ipomoea hederacea, 312 h; post-emergence application, 500 g/Ha, evaluated after 13 days; read-out: Control of weed species IPOHE (100=total damage to plant; 0=no damage to plant)
Binary classification by pest or weed control at 500 g/ha, with 30% as an inclusive lower bound for criterion met; all other cases are criterion not met.

Previously resolved entries follow.
| compound | group |
| --- | --- |
| CCNC(=O)c1cc[n+](CCOS(=O)(=O)[O-])nc1 | criterion met |
| O=C(O)CC[n+]1ccc(C(=O)NC2CC2(F)F)cn1 (centres unmarked) | criterion met |
| CCCCNC(=O)c1cc[n+](CCS(=O)(=O)[O-])nc1 | criterion met |
| CC(CS(C)(=O)=O)NC(=O)c1cc[n+](CCC(=O)O)nc1 (centres unmarked) | criterion met |

input: Is the recorded value of pest or weed control at 500 g/ha equal to or greater than 30% for this compound? CC(=O)CCNC(=O)c1cc[n+](CCC(=O)O)nc1
output: criterion not met

input: Is the recorded value of pest or weed control at 500 g/ha equal to or greater than 30% for this compound? CC(C)(C)NC(=O)c1cc[n+](CCS(=O)(=O)O)nc1
output: criterion met

input: Is the recorded value of pest or weed control at 500 g/ha equal to or greater than 30% for this compound? CC[S+]([O-])CCNC(=O)c1cc[n+](CCC(=O)O)nc1 (centres unmarked)
output: criterion met

input: Is the recorded value of pest or weed control at 500 g/ha equal to or greater than 30% for this compound? CC(C)N(C(=O)c1cc[n+](CCC(=O)O)nc1)C(C)C
output: criterion not met

input: Is the recorded value of pest or weed control at 500 g/ha equal to or greater than 30% for this compound? O=C(O)CC[n+]1ccc(C(=O)NC2(C(F)(F)F)CC2)cn1
output: criterion met

input: Is the recorded value of pest or weed control at 500 g/ha equal to or greater than 30% for this compound? O=C(Nc1ccccc1)c1cc[n+](CCS(=O)(=O)[O-])nc1
output: criterion not met

input: Is the recorded value of pest or weed control at 500 g/ha equal to or greater than 30% for this compound? C=CCNC(=O)c1cc[n+](CCCOS(=O)(=O)[O-])nc1
output: criterion met

input: Is the recorded value of pest or weed control at 500 g/ha equal to or greater than 30% for this compound? O=C(NCC(F)(F)F)c1cc[n+](CCS(=O)(=O)[O-])nc1
output: criterion met

input: Is the recorded value of pest or weed control at 500 g/ha equal to or greater than 30% for this compound? CC(C)N(C)C(=O)c1cc[n+](CCC(=O)O)nc1
output: criterion not met

input: Is the recorded value of pest or weed control at 500 g/ha equal to or greater than 30% for this compound? C#CCNC(=O)c1cc[n+](CCC(=O)O)nc1
output: criterion met
